test system: SiHa; assay: Cytotoxicity against human SiHa cells by sulforhodamine B assay; format: functional, cell-based
pIC50: −log10 of the molar value.
Listed below: pIC50 values for each entry.
Recorded Endpoint: pIC50

Compound Structure: COc1cc2c(cc1OCCCCOc1ccc(OCCCCOc3cc4c(cc3OC)C(=O)N3CCC[C@H]3C=N4)c3c1C(=O)c1ccccc1C3=O)N=C[C@@H]1CCCN1C2=O
Measured On: SiHa
Recorded Endpoint: pIC50
Data Value: 5.05
--
Compound Structure: COc1cc2c(cc1OCCCCCOc1ccc(OCCCCCOc3cc4c(cc3OC)C(=O)N3CCC[C@H]3C=N4)c3c1C(=O)c1ccccc1C3=O)N=C[C@@H]1CCCN1C2=O
Measured On: SiHa
Recorded Endpoint: pIC50
Data Value: 6.10
--
Compound Structure: COc1cc2c(cc1OCCCC(=O)Nc1cccc3c1C(=O)c1ccccc1C3=O)N=C[C@@H]1CCCN1C2=O
Measured On: SiHa
Recorded Endpoint: pIC50
Data Value: 5.74
--
Compound Structure: COc1cc2c(cc1OCCCOc1ccc(OCCCOc3cc4c(cc3OC)C(=O)N3CCC[C@H]3C=N4)c3c1C(=O)c1ccccc1C3=O)N=C[C@@H]1CCCN1C2=O
Measured On: SiHa
Recorded Endpoint: pIC50
Data Value: 6.10
--
Compound Structure: COc1cc2c(cc1OCCCCC(=O)Nc1cccc3c1C(=O)c1ccccc1C3=O)N=C[C@@H]1CCCN1C2=O
Measured On: SiHa
Recorded Endpoint: pIC50
Data Value: 5.92
--
Compound Structure: COc1cccc2c1C(=O)c1c(O)c3c(c(O)c1C2=O)C[C@@](O)(C(=O)CO)C[C@@H]3O[C@H]1C[C@H](N)[C@H](O)[C@H](C)O1
Measured On: SiHa
Recorded Endpoint: pIC50
Data Value: 5.82
